The reported numbers originate from PubChem BioAssay (NCI).

Consider the following molecules and their measured TGI readings.
Test system: SW-620 colon
Assay: NCI tumour cell line growth inhibition, 48 h

The examples below pair each entry with its known result.
# molecule, TGI
rows = [
    ("COC(=O)c1c(O)ccc2[nH]c(C)c(C#N)c12", "> 100 µM"),
    ("COC(=O)/C(=N\\NC(=S)NN)C(C(=O)C(=O)Nc1ccccc1C(N)=O)c1nc2ccccc2[nH]c1=O (stereo unspecified)", "> 100 µM"),
    ("CC(=O)OCCOCBr", "> 100 µM"),
]

Task: May I ask what TGI has been recorded for COc1ccccc1C(=O)c1ccc2ccccc2c1 ?
Output: 75.2 µM

====

System: T-47D breast
Assay: NCI tumour cell line growth inhibition, 48 h; in the data active = GI50 below about 0.43 µM; inactive = the rest
Mark one answer only. Choices: true (1) for active, false (0) for inactive

For orientation, consider the following solved cases.
# compound, tested system, group
measured = [
    ("COCC(=O)OC1CCn2c1nc1c2C(=O)C(C)=C(NC(C)=O)C1=O (stereo not given)", "T-47D breast", "false (0)"),
    ("CNc1nc(NC2CCCC2)nc(Sc2ccc(OC)cc2)n1", "T-47D breast", "false (0)"),
    ("CNC(=O)c1cn(C[C@H](F)CCc2ccc(NC(=O)Cc3cc(OC4CC(F)(F)C4)cc(C)n3)nn2)nn1", "T-47D breast", "false (0)"),
    ("Cc1ccc2/c(=C/c3ccc(N(C)C)cc3)c3cc(-c4ccccc4)[n+](C)n3c2c1", "T-47D breast", "true (1)"),
    ("NC(N)=N/N=C/c1c(-c2ccccn2)nc2sc(Cl)cn12", "T-47D breast", "false (0)"),
    ("COc1ccc(C2C(C#N)=C(N)OC3=C2CCCc2ccc(F)cc23)cc1OC (stereo not given)", "T-47D breast", "false (0)"),
    ("CCCCCCNc1nc(NCCCCCC)c2[nH]c(NCCCCCC)nc2n1", "T-47D breast", "false (0)"),
    ("C[C@H]1CCC/C=C/[C@@H]2C[C@H](N)C[C@H]2[C@H](O)/C=C/C(=O)O1", "T-47D breast", "false (0)"),
]

Task: Which outcome was entered for the compound CCn1c(-c2nonc2N)nc2ccc(F)cc21 in this test?
Output: false (0)

Task: Which outcome was entered for the compound COc1cc(/C=C2\CC3C4CC=C5CC(N6CCCC6)CC[C@]5(C)C4CC[C@]3(C)C2OC(C)=O)ccc1OCCN1CCCC1 (stereo not given in full) in this test?
Output: false (0)

====

Tested on: TK-10 renal
Test: NCI tumour cell line growth inhibition, 48 h; in the data active means GI50 below about 0.43 µM; inactive means the rest
Mark one answer only. Choices: active, inactive

For orientation, consider the following solved cases.
# molecule, group
rows = [
    ("COc1cc(/C=C2\\CC3C4CC=C5CC(N6CCCC6)CC[C@]5(C)C4CC[C@]3(C)C2OC(C)=O)ccc1OCCN1CCCC1 (stereo not given in full)", "inactive"),
    ("Cc1c(C(=O)NN)nnn1-c1ccnc2c(C(F)(F)F)cccc12", "inactive"),
    ("CN(C)CCNC(=O)Nc1c(C#N)[n+]([O-])c2cc(Cl)c(Cl)cc2[n+]1[O-]", "inactive"),
    ("Cc1ccc2/c(=C/c3ccc(N(C)C)cc3)c3cc(-c4ccccc4)[n+](C)n3c2c1", "active"),
    ("COc1ccc(NC2=C(Br)C(=O)C(C)=C(C)C2=O)cc1", "inactive"),
    ("NCCN1CCN(c2nccc(-c3ccc4ccccc4c3)n2)CC1", "inactive"),
    ("COc1ccc(-c2cc(-c3cc(Cl)ccc3Cl)nc3nc(=S)[nH]c(N)c23)cc1", "inactive"),
    ("Cc1sc(C)c(-c2ccc(CO)o2)c1-c1ccc(CO)o1", "active"),
]

Task: Which outcome was entered for the molecule COc1ccc2c(c1)C=CC(C#N)N2C(=O)c1ccccc1 (stereo not given) in this test?
Output: inactive
